# Tested on: L1210
# ASSAY NAME: Antiproliferative activity against mouse L1210 cells after 72 hrs by MTT assay
# Type: functional, cell-based
# MEASUREMENT CONTEXT: L1210, 72 h
pIC50: −log10 of the molar value.
TEST READOUT: pIC50

(1) COc1ccc(/C=C(/c2cc(OC)c(OC)c(OC)c2)C(C)O)cc1[N+](=O)[O-] (stereo not given)
(2) COc1cc(/C(=C/c2ccc(Cl)c(Cl)c2)C(C)O)cc(OC)c1OC (stereo not given)
Smaller pIC50 value, 1 vs 2 ? Your answer should be the label of the entry you select.
1
(1: 4.17, 2: 4.73)
